SYSTEM NAME: human µ receptor A6V (Homo sapiens, UniProt P35372, A6V)
Sequence (P35372 whole entry A6V): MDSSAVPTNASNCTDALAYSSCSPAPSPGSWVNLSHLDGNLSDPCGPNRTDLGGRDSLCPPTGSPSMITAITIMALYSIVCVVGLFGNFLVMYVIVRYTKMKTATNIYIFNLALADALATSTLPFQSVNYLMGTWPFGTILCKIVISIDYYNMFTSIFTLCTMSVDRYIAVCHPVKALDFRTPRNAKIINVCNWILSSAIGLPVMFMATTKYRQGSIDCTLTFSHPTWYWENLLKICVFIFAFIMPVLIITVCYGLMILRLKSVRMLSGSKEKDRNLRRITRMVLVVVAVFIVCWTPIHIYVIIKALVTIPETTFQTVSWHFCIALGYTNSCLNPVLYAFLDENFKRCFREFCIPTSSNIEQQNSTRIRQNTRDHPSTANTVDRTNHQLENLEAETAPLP
ASSAY METHOD TEXT: cell-based
RECORDED ENDPOINT: pKd
Convention used: pKd is expressed as -log10 of the molar concentration.

Lab note: need pKd with human µ receptor A6V (Homo sapiens, UniProt P35372, A6V) for entry `CC[C@@H](c1cccc(O)c1)[C@@H](C)CN(C)C` , please look it up.
5.35

----------
SYSTEM NAME: human µ receptor N40D (Homo sapiens, UniProt P35372, N40D)
Sequence (P35372 whole entry N40D): as the sequence (P35372 whole entry A6V) above, with V6A, N40D counted along it
ASSAY METHOD TEXT: cell-based
Assay type: cell-based
RECORDED ENDPOINT: Kd (µM)
Write the answer as a number in µM, unit excluded.

Param item = CC[C@@H](c1cccc(O)c1)[C@@H](C)CN(C)C [Tapentadol] ; retrieve measured Kd.
3.98
